system: CCRIS mutagenicity, Ames/micronucleus/aberration tests; test: CCRIS mutagenicity studies; conditions: Test System: AMES SALMONELLA TYPHIMURIUM; Strain/Indicator: TA100; Metabolic Activation: NONE; Method: STANDARD PLATE
Activity calls are given as the source filed them. No rule for the calls is given here.
Classes used: active, inactive

molecule | assigned category
CC(C)=CCOc1c2occc2cc2ccc(=O)oc12 | active
CCCCOCC=O | inactive
Cc1c(/C=N/OCc2ccc(Cl)cc2)c2cc([N+](=O)[O-])ccc2n1Cc1ccccc1 | inactive
COP(=S)(OC)Oc1ccc(Sc2ccc(OP(=S)(OC)OC)cc2)cc1 | inactive
O=C(c1ccccc1)C(O)c1ccccc1 (stereo not given) | inactive
CC#CC(OC(=O)NC1CCCCC1)(c1ccccc1)c1ccccc1 | active
c1ccc2c(c1)-c1cc3c(cc1C1NC21)-c1ccccc1C1NC31 (stereo not given) | active
C[C@H](CCC(=O)O)[C@H]1CC[C@H]2[C@@H]3[C@H](O)C[C@@H]4C[C@H](O)CC[C@]4(C)[C@H]3C[C@H](O)[C@]12C | inactive
Cc1cccc(NS(=O)(=O)c2cccc3cccnc23)c1 | inactive
O=[N+]([O-])c1c(-c2ccc(Cl)cc2)nc2sccn12 | inactive

====

system: CCRIS mutagenicity, Ames/micronucleus/aberration tests; assay: CCRIS mutagenicity studies; settings: Test System: AMES SALMONELLA TYPHIMURIUM; Strain/Indicator: TA98; Metabolic Activation: RAT LIVER S-9, PHENOBARBITAL AND BETA-NAPHTHOFLAVONE; Method: PREINCUBATION
The source made the active and inactive calls. The rule behind the calls is not given here.
Classes used: active, inactive

molecule | assigned category
CC(C)(c1ccccc1)c1ccc(O)cc1 | inactive
c1ccc2cc3ccccc3cc2c1 | inactive
C/C=C/C=O | active
[Cl][Ti]([Cl])[Cl] | inactive
[O]=[W](=[O])([OH])[OH] | inactive
C=C(C)CCl | inactive
CCC[N+](=O)[O-] | inactive
O=NN1CN2CN(C1)CN(N=O)C2 | inactive
ClCC1CO1 (configuration not stated) | active
NN | inactive
CCCCCCCCCCCCCCCCCCN | inactive
O=C1c2ccccc2C(=O)c2c(O)ccc(O)c21 | inactive

====

tested on: CCRIS mutagenicity, Ames/micronucleus/aberration tests; test: CCRIS mutagenicity studies; settings: Test System: AMES SALMONELLA TYPHIMURIUM; Strain/Indicator: TA98; Metabolic Activation: NONE; Method: PREINCUBATION
The source made the active and inactive calls. The rule behind the calls is not given here.

compound | target or test system | mutagenic call
C/C=C/C=O | CCRIS mutagenicity, Ames/micronucleus/aberration tests | active; positive
CCC(=O)OCc1ccccc1[N+](=O)[O-] | CCRIS mutagenicity, Ames/micronucleus/aberration tests | inactive; negative
Cc1ccc([N+](=O)[O-])c(C)c1[N+](=O)[O-] | CCRIS mutagenicity, Ames/micronucleus/aberration tests | inactive; negative
COC(C)=O | CCRIS mutagenicity, Ames/micronucleus/aberration tests | inactive; negative
CCc1c2ccccc2cc2c1c1c(c3ccccc32)O1 | CCRIS mutagenicity, Ames/micronucleus/aberration tests | active; positive
CC(=O)Nc1ccc(C)cc1 | CCRIS mutagenicity, Ames/micronucleus/aberration tests | inactive; negative
O=[N+]([O-])c1ccc(-c2ccccc2)c([N+](=O)[O-])c1 | CCRIS mutagenicity, Ames/micronucleus/aberration tests | active; positive
O=C1CCc2ccccc2O1 | CCRIS mutagenicity, Ames/micronucleus/aberration tests | inactive; negative
O=C1C=C(S(=O)(=O)O)c2ccccc2C1=O | CCRIS mutagenicity, Ames/micronucleus/aberration tests | inactive; negative
CCCCCCC(C)OC(=O)C[S][Sn]([CH2]CCC)([S]CC(=O)OC(C)CCCCCC)[S]CC(=O)OC(C)CCCCCC (stereo not given) | CCRIS mutagenicity, Ames/micronucleus/aberration tests | inactive; negative
CN(C)CCC(c1ccccc1)c1ccccn1 (stereo not given) | CCRIS mutagenicity, Ames/micronucleus/aberration tests | inactive; negative
CCN(CC)c1ccc(N=O)c(O)c1 | CCRIS mutagenicity, Ames/micronucleus/aberration tests | inactive; negative
NCCN1CCNCC1 | CCRIS mutagenicity, Ames/micronucleus/aberration tests | inactive; negative
CN(C)c1ccc([C@H]2C[C@]3(C)[C@@H](CC[C@]3(O)CCCO)[C@@H]3CCC4=CC(=O)CCC4=C32)cc1 | CCRIS mutagenicity, Ames/micronucleus/aberration tests | inactive; negative
O=[N+]([O-])c1cc(Cl)cc(Cl)c1O | CCRIS mutagenicity, Ames/micronucleus/aberration tests | inactive; negative
CC(=O)OCc1c(O)cc2c(c1O)C(=O)c1ccccc1C2=O | CCRIS mutagenicity, Ames/micronucleus/aberration tests | active; positive
CCOP(=S)(OCC)Oc1nc(Cl)c(Cl)cc1Cl | CCRIS mutagenicity, Ames/micronucleus/aberration tests | inactive; negative
CCOCn1cc(F)c(=O)n(C(=O)c2cccc(C(=O)Oc3nc(OC(=O)c4ccccc4)ccc3C#N)c2)c1=O | CCRIS mutagenicity, Ames/micronucleus/aberration tests | inactive; negative
C(=C/c1ccccc1)/c1ccccc1 | CCRIS mutagenicity, Ames/micronucleus/aberration tests | inactive; negative
Nc1ccc(CO)c([N+](=O)[O-])c1 | CCRIS mutagenicity, Ames/micronucleus/aberration tests | active; positive
CC(Br)CBr (stereo not given) | CCRIS mutagenicity, Ames/micronucleus/aberration tests | inactive; negative
C/C(O)=C(\N=O)C(=O)N(c1ccccc1)N(C)N=O | CCRIS mutagenicity, Ames/micronucleus/aberration tests | active; positive
COC(=O)C1=C(C)NC(C)=C(C(=O)OC/C=C/c2ccccc2)C1c1cccc([N+](=O)[O-])c1 (stereo not given) | CCRIS mutagenicity, Ames/micronucleus/aberration tests | inactive; negative
Nc1nc(N)nc(N)n1 | CCRIS mutagenicity, Ames/micronucleus/aberration tests | inactive; negative
O=S(=O)(O)Oc1c2ccccc2c2ccc3cccc4ccc1c2c43 | CCRIS mutagenicity, Ames/micronucleus/aberration tests | inactive; negative
